# measured-target: 5-hydroxytryptamine receptor 1A (Homo sapiens) (UniProt P08908)
# Sequence (P08908 whole entry): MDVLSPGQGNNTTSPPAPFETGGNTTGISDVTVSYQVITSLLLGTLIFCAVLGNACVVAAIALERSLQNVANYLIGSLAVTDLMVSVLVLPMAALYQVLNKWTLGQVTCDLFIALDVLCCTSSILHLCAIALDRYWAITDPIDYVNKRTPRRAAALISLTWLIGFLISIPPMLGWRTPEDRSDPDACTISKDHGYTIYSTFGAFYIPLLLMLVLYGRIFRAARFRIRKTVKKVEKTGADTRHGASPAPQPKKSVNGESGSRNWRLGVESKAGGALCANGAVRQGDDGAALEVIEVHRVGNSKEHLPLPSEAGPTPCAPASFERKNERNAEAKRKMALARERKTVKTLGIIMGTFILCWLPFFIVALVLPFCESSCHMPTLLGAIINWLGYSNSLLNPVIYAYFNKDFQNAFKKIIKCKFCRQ
# method-summary: Antagonist activity at 5HT1A receptor expressed in HEK293 cells assessed as inhibition of serotonin-induced [S35]GTPgammaS binding by scintillation counting
# Assay type: functional, cell-based
Active and inactive are the calls of the source. The calls are words filed in the database; no cut-off is given here.
parameter-measured: Activity

Field: example entries. Status: answers known.
- compound-structure-string: "CCCCC[C@H](O)CC(=O)CCc1ccc(O)c(OC)c1"
  measured-target: "5-hydroxytryptamine receptor 1A (Homo sapiens) (UniProt P08908)"
  Activity: "inactive"
- compound-structure-string: "CCCCCCCCC/C=C/C(=O)CCc1ccc(O)c(OC)c1"
  measured-target: "5-hydroxytryptamine receptor 1A (Homo sapiens) (UniProt P08908)"
  Activity: "inactive"
- compound-structure-string: "CCCCC/C=C/C(=O)CCc1ccc(O)c(OC)c1"
  measured-target: "5-hydroxytryptamine receptor 1A (Homo sapiens) (UniProt P08908)"
  Activity: "inactive"
- compound-structure-string: "CCCCCCC/C=C/C(=O)CCc1ccc(O)c(OC)c1"
  measured-target: "5-hydroxytryptamine receptor 1A (Homo sapiens) (UniProt P08908)"
  Activity: "inactive"
- compound-structure-string: "CCCCCC(=O)/C=C(O)/C=C/c1ccc(O)c(OC)c1"
  measured-target: "5-hydroxytryptamine receptor 1A (Homo sapiens) (UniProt P08908)"
  Activity: "inactive"

Proceeding to the next compound to report its Activity.
Ask | Returns the measured Activity for the input compound. Input: CCCCCCC/C(O)=C/C(=O)/C=C/c1ccc(O)c(OC)c1
Reply | inactive
